Recorded inhibition of monomeric tau uptake into human iPSC-derived neurons by entry
target: monomeric P301S 2N4R tau, pHrodo-labelled (human, UniProt P10636 1-758, pHrodo Red maleimide label); experiment: cell-based or functional assay; also: test concentration or dose not given here
Sequence (P10636 other isoform, or with tags, fused parts or gaps P301S P301S): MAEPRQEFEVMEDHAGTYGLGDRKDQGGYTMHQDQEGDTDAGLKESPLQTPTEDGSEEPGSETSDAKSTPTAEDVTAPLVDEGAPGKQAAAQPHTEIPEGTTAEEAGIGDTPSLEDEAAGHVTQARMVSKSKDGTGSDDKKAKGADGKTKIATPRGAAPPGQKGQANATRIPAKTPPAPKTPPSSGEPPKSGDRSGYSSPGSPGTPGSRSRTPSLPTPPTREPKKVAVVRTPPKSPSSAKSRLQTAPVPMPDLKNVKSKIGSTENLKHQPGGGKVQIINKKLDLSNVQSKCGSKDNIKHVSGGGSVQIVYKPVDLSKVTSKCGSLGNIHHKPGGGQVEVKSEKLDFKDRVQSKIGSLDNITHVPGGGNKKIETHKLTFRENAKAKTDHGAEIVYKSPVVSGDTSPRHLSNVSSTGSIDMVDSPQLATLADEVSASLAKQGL
Lab book: enter the figure in %, no units written.

{"binder": "#44 VH4VK3 humanised hIgG1 (antibody, V domains shown, also called VH4Vκ3; Clone VH4VK3 (D)) VH: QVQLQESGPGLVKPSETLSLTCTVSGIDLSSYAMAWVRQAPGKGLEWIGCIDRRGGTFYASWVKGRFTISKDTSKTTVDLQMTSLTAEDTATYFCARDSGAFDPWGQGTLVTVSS VL: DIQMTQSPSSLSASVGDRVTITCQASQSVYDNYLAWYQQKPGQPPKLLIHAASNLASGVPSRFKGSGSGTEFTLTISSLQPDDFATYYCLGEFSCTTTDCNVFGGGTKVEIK", "reported.result": 41.8}

Answer with the recorded inhibition of monomeric tau uptake into human iPSC-derived neurons for the binder listed here: #44 VH4VK2 humanised hIgG1 (antibody, V domains shown, also called VH4Vκ2; Clone VH4VK2 (C)) VH: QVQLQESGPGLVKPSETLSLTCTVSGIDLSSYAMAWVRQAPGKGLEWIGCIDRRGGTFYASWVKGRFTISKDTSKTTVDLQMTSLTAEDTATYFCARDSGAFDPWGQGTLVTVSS VL: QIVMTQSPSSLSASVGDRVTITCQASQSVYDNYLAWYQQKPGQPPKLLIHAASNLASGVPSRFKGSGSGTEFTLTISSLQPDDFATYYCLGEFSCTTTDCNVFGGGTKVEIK
50

Tell me inhibition of monomeric tau uptake into human iPSC-derived neurons reported for #44 VH3VK3 humanised hIgG1 (antibody, V domains shown, also called VH3Vκ3; Clone VH3VK3 (A)) VH: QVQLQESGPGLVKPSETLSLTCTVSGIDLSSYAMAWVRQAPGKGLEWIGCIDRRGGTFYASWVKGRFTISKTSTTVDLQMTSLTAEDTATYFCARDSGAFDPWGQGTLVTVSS VL: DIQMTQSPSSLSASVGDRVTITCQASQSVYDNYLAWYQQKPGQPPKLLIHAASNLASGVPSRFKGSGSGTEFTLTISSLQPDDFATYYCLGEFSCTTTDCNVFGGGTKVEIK
48.4
